- Tested on: Nakaseomyces glabratus
- Measurement Protocol: Antifungal activity against clinical isolate Candida glabrata assessed as inhibition of fungal growth by microdilution method
- Type: functional
Recorded Metric: MIC (µg/mL)
Could you give me the number in µg/mL? Just the number is fine.

[
  {
    "Compound": "CCc1ccccc1[Se]CC(O)(Cn1cncn1)c1ccc(F)cc1F (stereo unspecified)",
    "Result Value": 1
  },
  {
    "Compound": "COc1ccc([Se]CC(O)(Cn2cncn2)c2ccc(F)cc2F)cc1 (stereo unspecified)",
    "Result Value": 0.5
  },
  {
    "Compound": "COc1cccc([Se]CC(O)(Cn2cncn2)c2ccc(F)cc2F)c1 (stereo unspecified)",
    "Result Value": 4
  },
  {
    "Compound": "Cc1cccc(C)c1[Se]CC(O)(Cn1cncn1)c1ccc(F)cc1F (stereo unspecified)",
    "Result Value": 1
  },
  {
    "Compound": "Cc1cc(C)cc([Se]CC(O)(Cn2cncn2)c2ccc(F)cc2F)c1 (stereo unspecified)",
    "Result Value": 4
  }
]

Continue with the next compound.
Ask: # lookup: MIC of CCc1ccc([Se]CC(O)(Cn2cncn2)c2ccc(F)cc2F)cc1 (stereo unspecified)
Reply: 4

====

- Test system: Cryptococcus neoformans
- Measurement Protocol: Antifungal activity against Cryptococcus neoformans CGMCC 2.3161 assessed as inhibition of fungal growth by microdilution method
- Format: functional
Measured MIC by item
Write your answer as a measured quantity: the number, then the unit.

[
  {
    "Compound": "COc1cccc(C[Se]CC(O)(Cn2cncn2)c2ccc(F)cc2F)c1 (stereo unspecified)",
    "MIC": "2 µg/mL"
  },
  {
    "Compound": "Cc1ccc(C)c([Se]CC(O)(Cn2cncn2)c2ccc(F)cc2F)c1 (stereo unspecified)",
    "MIC": "0.25 µg/mL"
  },
  {
    "Compound": "COc1cccc([Se]CC(O)(Cn2cncn2)c2ccc(F)cc2F)c1 (stereo unspecified)",
    "MIC": "1 µg/mL"
  }
]

Ask: Look up MIC: OC(C[Se]Cc1cccc(F)c1)(Cn1cncn1)c1ccc(F)cc1F (stereo unspecified)
Reply: 2 µg/mL

Ask: Which value of MIC has been reported for Cc1cc(C)cc([Se]CC(O)(Cn2cncn2)c2ccc(F)cc2F)c1 (stereo unspecified) in the records?
Reply: 0.03 µg/mL

Ask: Any idea what MIC was measured for Cc1ccccc1[Se]CC(O)(Cn1cncn1)c1ccc(F)cc1F (stereo unspecified) ?
Reply: 0.25 µg/mL

Ask: Reported MIC for OC(C[Se]Cc1ccc(F)cc1)(Cn1cncn1)c1ccc(F)cc1F (stereo unspecified) : what is it?
Reply: 2 µg/mL

Ask: Reported MIC, compound COc1ccc([Se]CC(O)(Cn2cncn2)c2ccc(F)cc2F)cc1 (stereo unspecified) : ____
Reply: 0.03 µg/mL

====

- System: Cryptococcus neoformans
- Measurement Protocol: Antifungal activity against Cryptococcus neoformans CGMCC 2.3161 assessed as inhibition of fungal growth by microdilution method
- Type: functional
The molecules listed here are annotated with their MIC.
Hi! Could you send only the number? It should be in µg/mL, unit omitted.

See these solved cases before continuing.
[
  {
    "Molecule": "CCc1ccc([Se]CC(O)(Cn2cncn2)c2ccc(F)cc2F)cc1 (configuration not stated)",
    "Recorded Metric": "MIC",
    "Result Value": 1
  },
  {
    "Molecule": "OC(C[Se]c1ccc(F)cc1)(Cn1cncn1)c1ccc(F)cc1F (configuration not stated)",
    "Recorded Metric": "MIC",
    "Result Value": 0.25
  },
  {
    "Molecule": "OC(C[Se]Cc1ccc(C(F)(F)F)cc1)(Cn1cncn1)c1ccc(F)cc1F (configuration not stated)",
    "Recorded Metric": "MIC",
    "Result Value": 0.5
  }
]

Ask: Requested field: MIC. Item: CCc1ccccc1[Se]CC(O)(Cn1cncn1)c1ccc(F)cc1F (configuration not stated)
Reply: 0.5

Ask: Given Cc1ccc(C[Se]CC(O)(Cn2cncn2)c2ccc(F)cc2F)cc1 (configuration not stated) , state its recorded MIC.
Reply: 1

Ask: Sample Cc1cccc(C)c1[Se]CC(O)(Cn1cncn1)c1ccc(F)cc1F (configuration not stated) — what was its MIC?
Reply: 0.25

Ask: Given Cc1cccc([Se]CC(O)(Cn2cncn2)c2ccc(F)cc2F)c1 (configuration not stated) , state its recorded MIC.
Reply: 0.5

Where do these numbers come from? They come from ChEMBL document CHEMBL5236585.
